Each entry below carries its reported cytotoxicity at 10 µM.
- protocol_text: Toxicity liver stage against HepG2, at 10uM
- Format: cell-based
- Design: test concentration 10 uM, cell line HepG2-A16-CD81EGFP
- assay_conditions: human, HepG2-A16-CD81EGFP cells; read-out: INHIBITION

| molecule | value_units | cytotoxicity at 10 µM |
| --- | --- | --- |
| Cc1ccc(C(=O)N2CC[C@@H]3[C@H]2CCC(=O)N3c2ccccc2)o1 | % | -3.89 |
| CC(=O)N1CCN(Cc2ccc(C(F)(F)F)cc2F)CC(O)C1 (stereo not drawn) | % | -5.34 |
| Cc1csc(CNC(=O)N(C)Cc2nnc3n2CCC3)n1 | % | -4.75 |
| Cc1n[nH]c(C2CN(C(=O)c3cc(C)sc3C)CCO2)n1 (stereo not drawn) | % | 3.35 |
| CNC(=O)CN1CCCC12CCN(Cc1c[nH]cn1)CC2 | % | 0.312 |
| CCc1nnc2n1CCN(c1nc(C)cc(N(C)C)n1)C2 | % | -5.89 |
| O=C(COc1coc(CN2CCOCC2)cc1=O)Nc1ccc(Cl)cc1 | % | -6.51 |
| CCOc1cccc(COC(=O)c2scnc2C)n1 | % | -0.966 |
| O=C(C1CC=CC1)N1CCCn2nnc(CNc3ncccn3)c2C1 | % | 6.97 |
| COc1ccc(-c2cnc(N)nc2C2CCCNC2)cc1 (stereo not drawn) | % | -1.51 |
| CCNC(=O)NC(=O)CNC(C)(C)c1ccc2c(c1)OCCO2 | % | -19.7 |
| CC(C)Nc1cccc(CNC(=O)N2CCCC2)c1 | % | 1.98 |
| CSCCCNC(=O)C1CCC(=O)N(C2CCCC2)C1 (stereo not drawn) | % | -11.1 |
| CN(C)C[C@H]1OC[C@@H]2CN(C(=O)NCc3cccnc3)CC[C@@H]21 | % | 3.86 |
| CNc1ccc(CC2CCCN(C(=O)c3cncnc3C)C2)nn1 (stereo not drawn) | % | 5.99 |
| Cc1ccc(C2(O)CCN(C(=O)c3ccc(S(N)(=O)=O)cc3)CC2)nc1 | % | -2.13 |
| O=C(Nc1ccccc1)c1ccc(NCc2ccccc2CO)nn1 | % | 4.34 |
| CC(Cc1c(F)cccc1F)NC(=O)CSCC(N)=O (stereo not drawn) | % | -6.37 |
| COCCC(=O)N(C)Cc1nc(C(F)(F)F)cs1 | % | 23.3 |
| CC(C(=O)N1CCCC1)N1CCCN(C(=O)Oc2ccccc2)CC1 (stereo not drawn) | % | 3.4 |
| O=C(NCCOCCO)[C@@]12CNC[C@@H]1CN(C1CCCC1)C2 | % | -16.4 |
| COC(=O)CCC(=O)N1CCc2[nH]nc(-c3ccc4c(c3)OCO4)c2C1 | % | -8.28 |
| CC(C(=O)N(Cc1ccc(F)cc1)CC(F)(F)F)S(C)(=O)=O (stereo not drawn) | % | 14.7 |
| Cn1cccc1CN1CCC2(CC1)CN(c1ncccn1)CCO2 | % | -4 |
| COCCN1CC2(CCCN(C(=O)NCCc3cccs3)C2)CCC1=O (stereo not drawn) | % | -8.14 |
| CO[C@H]1CN(C(=O)c2ccc[nH]2)[C@@H]2COC[C@H]12 | % | -6.04 |
| CCN1CC(C(=O)N2CC(Oc3ccccc3F)C2)CC1=O (stereo not drawn) | % | -2.49 |
| O=S(=O)(C1CC1)N1CCC2(CC1)CN(Cc1ccccn1)CCO2 | % | -0.358 |
| Cc1cc(C)n(CC2CCCN2CC(=O)N(C)Cc2ccco2)n1 (stereo not drawn) | % | -12.2 |
| CCCN1CCC(c2nc3ccc(NCc4ccccc4)cn3n2)CC1 | % | -125 |
| CC(C)C(=O)N1CCN(S(=O)(=O)C2CC2)CC2(CC(=O)N(C)C2)C1 (stereo not drawn) | % | 8.4 |
| Cn1ccc(C(=O)N2CCC(Cc3cccc4cccnc34)C2)n1 (stereo not drawn) | % | 2.16 |
| CNC(=O)C1CCN(c2cc(C3CCNCC3)nc(C)n2)C1 (stereo not drawn) | % | -6.43 |
| COc1ccc(Nc2ccc(C#N)cn2)cc1N1CCCC1=O | % | 10.1 |
| Cc1cc(C(=O)N2CCN(c3nc4c(F)cccc4s3)CC2)no1 | % | -3.64 |
| CN(C)CCOCc1nnc2n1CCN(Cc1ccco1)CC2 | % | 2.19 |
| CC(O)CCN(C)c1nc2ccccc2c(=O)[nH]1 (stereo not drawn) | % | 12.6 |
| NC(=O)NCCC(=O)NCc1cccnc1N1CCc2ccccc2C1 | % | 4.92 |
| O=C1CCCCCN1Cc1ncnn1Cc1c(F)cccc1Cl | % | 2.14 |
| C[C@@H]1C[C@H]2CN(C(=O)c3cccc4c3OCCO4)C[C@H]2O1 | % | -0.726 |
| CNS(=O)(=O)c1ccc(CNC(=O)N2CCOC(C)C2)cc1 (stereo not drawn) | % | 9.15 |
| Cc1nnsc1C(=O)N1CC(c2nc3ccccc3[nH]2)C1 | % | 4.17 |
| CNC(=O)c1cc(NC(=O)NC(C)CCc2cccn2C)ccc1F (stereo not drawn) | % | -2.01 |
| CC(C)OCCOCc1cccc(NC(=O)NCc2cnn(C)c2)c1 | % | -1.11 |
| CCc1noc(C(C)N2CCN(CC(C)C)CC2)n1 (stereo not drawn) | % | -4.05 |
| CCC(=O)Nc1nnc(CCOc2cccc(OC)c2)s1 | % | 5.73 |
| COC(=O)CN1CCN(c2cccc(C)c2)CC1 | % | 3.54 |
| CN1CCCN(c2ccc(F)cc2CNC(=O)c2cccnc2)CC1 | % | -2.52 |
